In this section, each of the compounds is paired with its reported normalized growth.
Experiment notes: chemical genetic growth profiling, strain panel (AID 1159580);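 note: tested at 20 µM; growth read once vehicle control cultures reached saturation at 30 °C; 1 = growth at the plate median or of vehicle wells; lower values mean less growth of the strain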
Run parameters: S. cerevisiae deletion strains, growth OD, locus YDL134C, strain PPH21, hits give low values
Screen size: about 5,500 compounds; about 2,000 (36%) were called active. About 18% were inconclusive and are not listed. Some of the results follow.
Answer as a number with no unit attached.

NC(=O)c1ncn([C@@H]2O[C@H](CO)[C@@H](O)[C@H]2O)c1O = 1

Form field: reported normalized growth of Cc1ccc(C(=O)C(C)CN2CCCCC2)cc1 (stereo not drawn)
1.02

Form field: reported normalized growth of CCC1(c2ccc(N)cc2)CCC(=O)NC1=O (stereo not drawn)
1.02

Form field: reported normalized growth of N#Cc1c(Cl)c(Cl)c(Cl)c(C#N)c1Cl
0.992

Form field: reported normalized growth of CO[C@H]1C[C@H](O[C@H]2[C@H](C)[C@@H](OC3O[C@H](C)C[C@H](N(C)C)[C@H]3O)[C@@H](C)C[C@]3(CO3)C(=O)[C@H](C)[C@@H](O)[C@@H](C)[C@@H](C)OC(=O)[C@@H]2C)O[C@@H](C)[C@@H]1O (stereo partly drawn)
1.01

Form field: reported normalized growth of CCC1(C)CC(=O)NC1=O (stereo not drawn)
1.02

Form field: reported normalized growth of CC1(O)/C=C/C=C(\CO)C2CC(C)(C)C2(O)CC1 (stereo not drawn)
1.02

Form field: reported normalized growth of CCCCCCCCCCCCC[N+](C)(C)Cc1ccccc1
0.0476

Form field: reported normalized growth of CCCCOc1ccc(OCCCN2CCOCC2)cc1
0.823
